experiment: Cytotoxicity determination in HepG2.2.15 cells (CCK-8); assay type: cell-based; conditions: human, 6 days treatment, CCK-8, highest concentration 100 uM
MEASURED PROPERTY: CC50 at 6 days (µM)

>>> experimental_result("CCOC(=O)C1=C([C@H]2CC[C@H](c3nc(C(C)(C)C(=O)O)co3)CC2)NC(c2nccs2)=NC1c1ccc(F)c(F)c1Cl (single isomer, unassigned) [Compound I-27-B]")
5.17
>>> experimental_result("CCOC(=O)C1=C([C@H]2CC[C@H](c3nc(C(=O)O)c(C)o3)CC2)NC(c2nccs2)=NC1c1ccc(F)c(F)c1Cl (single isomer, unassigned) [Compound I-14-B]")
3.72
>>> experimental_result("COC(=O)C1=C(C2CCN(c3nccc(CC(=O)O)n3)CC2)NC(c2nccs2)=NC1c1ccc(F)cc1Cl (single isomer, unassigned) [II-13-A]")
24.4
>>> experimental_result("COC(=O)C1=C([C@H]2CC[C@H](c3nc(CC(=O)O)co3)CC2)NC(c2nccs2)=NC1c1cccc(F)c1Cl (single isomer, unassigned) [Compound I-20-B]")
7.21
>>> experimental_result("CCOC(=O)C1=C(C2CCN(c3ncc([C@]4(O)C[C@@H](C(=O)O)C4)cn3)CC2)NC(c2nccs2)=NC1c1ccc(F)c(F)c1Cl (single isomer, unassigned) [II-55-B]")
7.96
>>> experimental_result("CCOC(=O)C1=C([C@H]2CC[C@H](c3cc(C(=O)O)on3)CC2)NC(c2nccs2)=NC1c1ccc(F)c(F)c1Cl (single isomer, unassigned) [Compound I-43-B]")
13.7
>>> experimental_result("CCOC(=O)C1=C(C2CCN(c3ncc(CC(=O)O)cn3)CC2)NC(c2nccs2)=NC1c1cccc(F)c1C (single isomer, unassigned) [II-3-B]")
4.22

====

test system: HBV; experiment: Anti-viral assay in HepG2.2.15 cells: HBV inhibitory activity (HBV DNA in culture medium by q-PCR); format: cell-based; conditions: Hepatitis B virus, HepG2.2.15, 144 h, HepG2.2.15 cells, 6 days treatment, HBV DNA in culture medium by q-PCR, highest concentration 10 uM; read-out: EC50
pEC50: −log10 of the molar value.
MEASURED PROPERTY: pEC50

>>> experimental_result("COC(=O)C1=C(C2CCN(c3ncc(N4CCC(C(=O)O)CC4)cn3)CC2)NC(c2nccs2)=NC1c1ccc(F)cc1Cl (single isomer, unassigned)")
8.27
>>> experimental_result("CCOC(=O)C1=C(C2CCN(c3nc(OC)cc(C(=O)O)n3)CC2)NC(c2nccs2)=NC1c1ccc(F)c(F)c1Cl (single isomer, unassigned)")
7.00
>>> experimental_result("COC(=O)C1=C(C2CCN(c3ncc(C(=O)O)s3)CC2)NC(c2nccs2)=NC1c1ccc(F)c(F)c1Br (single isomer, unassigned)")
8.04
>>> experimental_result("CCOC(=O)C1=C([C@H]2CC[C@H](c3cnn(CC(=O)O)c3)CC2)NC(c2nccs2)=NC1c1ccc(F)c(F)c1Cl (single isomer, unassigned)")
7.48
>>> experimental_result("CCOC(=O)C1=C([C@H]2CC[C@H](c3cc(C(=O)O)no3)CC2)NC(c2nccs2)=NC1c1ccc(F)c(F)c1Cl (single isomer, unassigned)")
7.08
>>> experimental_result("COC(=O)C1=C(C23CC(c4nc(C(=O)O)co4)(C2)C3)NC(c2nccs2)=NC1c1ccc(F)c(F)c1Cl (single isomer, unassigned)")
7.29
>>> experimental_result("CCOC(=O)C1=C(C2CCN(c3nccc(C(=O)O)n3)CC2)NC(c2nccs2)=NC1c1ccc(F)c(F)c1Cl (single isomer, unassigned)")
8.34
>>> experimental_result("CCOC(=O)C1=C(C2CCN(c3ncc(C(C)C)c(C(=O)O)n3)CC2)NC(c2nccs2)=NC1c1ccc(F)c(F)c1Cl (single isomer, unassigned)")
7.89
>>> experimental_result("COC(=O)C1=C(C2CCN(c3ncc(N)c(C(=O)O)n3)CC2)NC(c2nccs2)=NC1c1ccc(F)c(F)c1Cl (single isomer, unassigned)")
8.15
>>> experimental_result("COC(=O)C1=C(C2CCN(c3ncc(C)c(C(=O)O)n3)CC2)NC(c2nccs2)=NC1c1ccc(F)cc1Br (single isomer, unassigned)")
8.14
